organism: Rattus norvegicus; test: DrugMatrix - Regimen: Daily Repeat; type: toxicity, organism-based, Sprague-Dawley; set-up: regimen Daily Repeat, gender Male, age 6-8 weeks; conditions: in vivo, iv, 0 mg/kg, 72 h, tissue Plasma, dose level Control, time 3 day, vehicle 100 % SALINE
# key: entry, value: GLUCOSE
// note: answer is a bare numeric in mg/dL

Reference set, count: 3
CO[C@@]12[C@H](COC(N)=O)C3=C(C(=O)C(C)=C(N)C3=O)N1C[C@@H]1N[C@@H]12 128.67
COC(=O)C[C@](O)(CCC(C)(C)O)C(=O)O[C@@H]1C(OC)=C[C@]23CCCN2CCc2cc4c(cc2[C@H]13)OCO4 163.83
Cc1c(N)nc([C@H](CC(N)=O)NC[C@H](N)C(N)=O)nc1C(=O)N[C@H](C(=O)N[C@H](C)[C@@H](O)[C@H](C)C(=O)N[C@H](C(=O)NCCc1nc(-c2nc(C(=O)NCCC[S+](C)C)cs2)cs1)[C@@H](C)O)[C@@H](O[C@@H]1O[C@@H](CO)[C@@H](O)[C@H](O)[C@@H]1O[C@H]1O[C@H](CO)[C@@H](O)[C@H](OC(N)=O)[C@@H]1O)c1c[nH]cn1.[Br-] 163

Qu. What value of measured GLUCOSE is listed for CC(=O)[C@]1(O)Cc2c(O)c3c(c(O)c2[C@@H](O[C@H]2C[C@H](N)[C@H](O)[C@H](C)O2)C1)C(=O)c1ccccc1C3=O ?
Ans. 149.33

* * *

species: Rattus norvegicus; assay: DrugMatrix - Regimen: Daily Repeat; type: toxicity, organism-based, Sprague-Dawley; set-up: regimen Daily Repeat, gender Male, age 6-8 weeks; settings: in vivo, po, 0 mg/kg, 120 h, tissue Blood, route oral GAVAGE, dose level Control, time 5 day, vehicle 100 % WATER
PROPERTY_NAME: MEAN CORPUSCULAR HEMOGLOBIN (pg)
// note: answer is a bare numeric in pg

COMPOUND	UNIT_TAG	MEAN CORPUSCULAR HEMOGLOBIN
Cc1cc(C(C)(C)C)c(O)c(C)c1CC1=NCCN1	pg	25.25
NN [HYDRAZINE]	pg	23.95

Qu. What value of measured MEAN CORPUSCULAR HEMOGLOBIN is listed for CCC1(c2ccccc2)C(=O)NC(=O)NC1=O ?
Ans. 24.82

Qu. What value of measured MEAN CORPUSCULAR HEMOGLOBIN is listed for CCN(CC)C(=S)SSC(=S)N(CC)CC ?
Ans. 24.85

Qu. What value of measured MEAN CORPUSCULAR HEMOGLOBIN is listed for Cc1cn([C@H]2C=C[C@@H](CO)O2)c(=O)[nH]c1=O ?
Ans. 24.57

Qu. What value of measured MEAN CORPUSCULAR HEMOGLOBIN is listed for CN1C(=O)OC(C)(C)C1=O ?
Ans. 23.92

Qu. What value of measured MEAN CORPUSCULAR HEMOGLOBIN is listed for C[N+](C)(C)CCOC(N)=O.[Cl-] ?
Ans. 24.57

Qu. What value of measured MEAN CORPUSCULAR HEMOGLOBIN is listed for CC(Cl)(Cl)Cl ?
Ans. 24.3

Qu. What value of measured MEAN CORPUSCULAR HEMOGLOBIN is listed for C1CCN2C[C@@H]3C[C@@H](CN4CCCC[C@@H]34)[C@H]2C1 ?
Ans. 24.3

* * *

# key: entry, value: TOTAL PROTEIN
species: Rattus norvegicus; assay: DrugMatrix - Regimen: Daily Repeat; type: toxicity, organism-based, Sprague-Dawley; parameters: regimen Daily Repeat, gender Male, age 6-8 weeks; conditions: in vivo, po, 0 mg/kg, 120 h, tissue Plasma, route oral GAVAGE, dose level Control, time 5 day, vehicle .5 % CMC
A bare number is not enough; add the unit after it.

Reference set, count: 2
MOLECULE	TOTAL PROTEIN
NC(=O)CN1CCCC1=O	6.02 G/DL
COc1ccc(Cl)cc1C(=O)NCCc1ccc(S(=O)(=O)NC(=O)NC2CCCCC2)cc1 [GLYBURIDE]	6.32 G/DL

Qu. What value of measured TOTAL PROTEIN is listed for NC(=O)NC(=O)Cc1ccccc1 [PHENACEMIDE] ?
Ans. 6.07 G/DL

Qu. What value of measured TOTAL PROTEIN is listed for CCN(CC)CCNC(=O)c1cc(Cl)c(N)cc1OC [METOCLOPRAMIDE] ?
Ans. 6.33 G/DL

Qu. What value of measured TOTAL PROTEIN is listed for CCN1CCN(c2cc3c(cc2F)c(=O)c(C(=O)O)cn3C2CC2)CC1 ?
Ans. 6.33 G/DL

* * *

# key: entry, value: ABSOLUTE LYMPHOCYTE
organism: Rattus norvegicus; assay: DrugMatrix - Regimen: Daily Repeat; format: toxicity, organism-based, Sprague-Dawley; design: regimen Daily Repeat, gender Male, age 6-8 weeks; conditions: in vivo, po, 0 mg/kg, 120 h, tissue Blood, route oral GAVAGE, dose level Control, time 5 day, vehicle .5 % CMC

COMPOUND	ABSOLUTE LYMPHOCYTE
CC(=O)Nc1ccc2c(c1)Cc1ccccc1-2 [2-ACETYLAMINOFLUORENE]	13632.83 CELLS/uL
NC(=O)NC(=O)Cc1ccccc1 [PHENACEMIDE]	10076.67 CELLS/uL
NC(=O)CN1CCCC1=O	13283.17 CELLS/uL
NCC(CC(=O)O)c1ccc(Cl)cc1 (stereo unspecified) [BACLOFEN]	13632.83 CELLS/uL
CCOc1cc(N)c(Cl)cc1C(=O)NCC1CN(Cc2ccc(F)cc2)CCO1 (stereo unspecified) [MOSAPRIDE]	13632.83 CELLS/uL

Kindly review the next compound as well.
Qu. What value of measured ABSOLUTE LYMPHOCYTE is listed for Cc1cc2c(s1)Nc1ccccc1N=C2N1CCN(C)CC1 [OLANZAPINE] ?
Ans. 14327.83 CELLS/uL

* * *

species on record: Rattus norvegicus; experiment: DrugMatrix - Regimen: Daily Repeat; assay type: toxicity, organism-based, Sprague-Dawley; set-up: regimen Daily Repeat, gender Male, age 6-8 weeks; conditions: in vivo, iv, 0 mg/kg, 72 h, tissue Plasma, dose level Control, time 3 day, vehicle 100 % SALINE
# key: entry, value: CHLORIDE
// note: answer is a bare numeric in MEQ/L

Reference set, count: 2
COMPOUND	UNIT_TAG	NUMERIC_READOUT
CC(=O)[C@]1(O)Cc2c(O)c3c(c(O)c2[C@@H](O[C@H]2C[C@H](N)[C@H](O)[C@H](C)O2)C1)C(=O)c1ccccc1C3=O [IDARUBICIN]	MEQ/L	103
Cc1c(N)nc([C@H](CC(N)=O)NC[C@H](N)C(N)=O)nc1C(=O)N[C@H](C(=O)N[C@H](C)[C@@H](O)[C@H](C)C(=O)N[C@H](C(=O)NCCc1nc(-c2nc(C(=O)NCCC[S+](C)C)cs2)cs1)[C@@H](C)O)[C@@H](O[C@@H]1O[C@@H](CO)[C@@H](O)[C@H](O)[C@@H]1O[C@H]1O[C@H](CO)[C@@H](O)[C@H](OC(N)=O)[C@@H]1O)c1c[nH]cn1.[Br-] [BLEOMYCIN A2]	MEQ/L	101.17

Qu. What value of measured CHLORIDE is listed for COC(=O)C[C@](O)(CCC(C)(C)O)C(=O)O[C@@H]1C(OC)=C[C@]23CCCN2CCc2cc4c(cc2[C@H]13)OCO4 [HARRINGTONINE] ?
Ans. 99.67

Qu. What value of measured CHLORIDE is listed for CO[C@@]12[C@H](COC(N)=O)C3=C(C(=O)C(C)=C(N)C3=O)N1C[C@@H]1N[C@@H]12 [MITOMYCIN] ?
Ans. 98

* * *

# key: entry, value: TOTAL PROTEIN
organism: Rattus norvegicus; experiment: DrugMatrix - Regimen: Daily Repeat; type: toxicity, organism-based, Sprague-Dawley; set-up: regimen Daily Repeat, gender Male, age 6-8 weeks; settings: in vivo, po, 1500 mg/kg, 120 h, tissue Plasma, route oral GAVAGE, dose level High, time 5 day, vehicle .5 % CMC
// note: answer is a bare numeric in G/DL

Reference set, count: 3
COMPOUND	PROPERTY_NAME	UNIT_TAG	NUMERIC_READOUT
COc1ccc(Cl)cc1C(=O)NCCc1ccc(S(=O)(=O)NC(=O)NC2CCCCC2)cc1 [GLYBURIDE]	TOTAL PROTEIN	G/DL	5.93
CC[C@H]1OC(=O)[C@H](C)[C@@H](O[C@H]2C[C@@](C)(OC)[C@@H](O)[C@H](C)O2)[C@H](C)[C@@H](O[C@@H]2O[C@H](C)C[C@H](N(C)C)[C@H]2O)[C@](C)(O)C[C@@H](C)C(=O)[C@H](C)[C@@H](O)[C@]1(C)O	TOTAL PROTEIN	G/DL	6.13
COc1cc(/C=C/C(=O)O)ccc1O [FERULATE]	TOTAL PROTEIN	G/DL	6.17

Qu. What value of measured TOTAL PROTEIN is listed for O=C(O)CCc1nc(-c2ccccc2)c(-c2ccccc2)o1 ?
Ans. 6

Qu. What value of measured TOTAL PROTEIN is listed for Cc1ccc(S(=O)(=O)NC(=O)NN2CCCCCC2)cc1 [TOLAZAMIDE] ?
Ans. 6.57
